Hey, just so you know, these numbers are from patent US11370794B2.

testedTarget: human TLR8 (Homo sapiens, UniProt Q9NR97)
Construct: endogenous in cells; host or cells: primary human monocytes (CD14 microbeads) from buffy coats of healthy donors
Sequence (Q9NR97 27-1041): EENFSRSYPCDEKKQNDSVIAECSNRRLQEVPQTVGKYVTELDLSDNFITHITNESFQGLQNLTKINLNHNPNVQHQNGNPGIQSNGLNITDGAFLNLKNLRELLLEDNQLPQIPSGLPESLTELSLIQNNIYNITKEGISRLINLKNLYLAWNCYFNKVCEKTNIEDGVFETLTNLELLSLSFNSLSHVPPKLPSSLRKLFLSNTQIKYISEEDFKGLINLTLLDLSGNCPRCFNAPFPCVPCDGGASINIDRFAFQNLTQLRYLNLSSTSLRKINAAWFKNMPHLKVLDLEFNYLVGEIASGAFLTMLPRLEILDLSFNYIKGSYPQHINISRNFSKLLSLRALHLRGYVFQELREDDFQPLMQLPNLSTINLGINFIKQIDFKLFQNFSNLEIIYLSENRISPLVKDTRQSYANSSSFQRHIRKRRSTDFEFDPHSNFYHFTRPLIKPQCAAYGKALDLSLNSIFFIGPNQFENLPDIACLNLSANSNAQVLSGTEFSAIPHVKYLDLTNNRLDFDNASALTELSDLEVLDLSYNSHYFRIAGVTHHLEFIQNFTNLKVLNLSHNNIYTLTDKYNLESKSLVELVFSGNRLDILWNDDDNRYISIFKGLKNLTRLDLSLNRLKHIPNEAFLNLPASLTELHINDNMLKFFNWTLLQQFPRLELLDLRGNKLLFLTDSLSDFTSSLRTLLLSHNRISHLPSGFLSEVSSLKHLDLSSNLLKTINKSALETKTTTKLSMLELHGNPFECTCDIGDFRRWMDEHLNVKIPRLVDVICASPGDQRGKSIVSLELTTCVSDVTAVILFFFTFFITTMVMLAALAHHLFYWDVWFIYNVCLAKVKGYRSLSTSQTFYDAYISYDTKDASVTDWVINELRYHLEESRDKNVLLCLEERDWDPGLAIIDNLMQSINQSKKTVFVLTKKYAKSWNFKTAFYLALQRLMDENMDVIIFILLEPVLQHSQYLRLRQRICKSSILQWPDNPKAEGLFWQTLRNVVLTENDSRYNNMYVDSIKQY
experimentNotes: Inhibition of human TLR8 in human monocytes (TNF-alpha / IL-1 beta ELISA)
Assay type: cell-based
setupConditions: human monocytes, agonist ORN8L 100 μg/mL, TNF-alpha readout, 24 hours; read-out: Human TLR8 IC50 TNF-a
measurementType: IC50

Batch request: IC50 for each of the following compounds.
1. Cc1ccc(-n2nc3c(N4CCC(C(=O)N5CCC(N(C)C)C5)CC4)nnc(C)c3c2C)cc1 (stereo not drawn)
2. Cc1ccc(-n2nc3c(N4CCC(C(=O)N5CCC(CN(C)C)C5)CC4)nnc(C)c3c2C)cc1 (stereo not drawn)
3. CCN(CC)CCCNC(=O)C1CCN(c2nnc(C)c3c(C)n(-c4ccccc4)nc23)CC1

(A)
1. ≥ 20 µM
2. ≥ 20 µM
3. > 10 µM

---

Consider the following compounds; for each one, report its IC50.
testedTarget: human TLR9 (Homo sapiens, UniProt Q9NR96)
Construct: endogenous in cells; host or cells: primary human B cells (CD19 microbeads) from buffy coats of healthy donors
Sequence (Q9NR96 26-1032): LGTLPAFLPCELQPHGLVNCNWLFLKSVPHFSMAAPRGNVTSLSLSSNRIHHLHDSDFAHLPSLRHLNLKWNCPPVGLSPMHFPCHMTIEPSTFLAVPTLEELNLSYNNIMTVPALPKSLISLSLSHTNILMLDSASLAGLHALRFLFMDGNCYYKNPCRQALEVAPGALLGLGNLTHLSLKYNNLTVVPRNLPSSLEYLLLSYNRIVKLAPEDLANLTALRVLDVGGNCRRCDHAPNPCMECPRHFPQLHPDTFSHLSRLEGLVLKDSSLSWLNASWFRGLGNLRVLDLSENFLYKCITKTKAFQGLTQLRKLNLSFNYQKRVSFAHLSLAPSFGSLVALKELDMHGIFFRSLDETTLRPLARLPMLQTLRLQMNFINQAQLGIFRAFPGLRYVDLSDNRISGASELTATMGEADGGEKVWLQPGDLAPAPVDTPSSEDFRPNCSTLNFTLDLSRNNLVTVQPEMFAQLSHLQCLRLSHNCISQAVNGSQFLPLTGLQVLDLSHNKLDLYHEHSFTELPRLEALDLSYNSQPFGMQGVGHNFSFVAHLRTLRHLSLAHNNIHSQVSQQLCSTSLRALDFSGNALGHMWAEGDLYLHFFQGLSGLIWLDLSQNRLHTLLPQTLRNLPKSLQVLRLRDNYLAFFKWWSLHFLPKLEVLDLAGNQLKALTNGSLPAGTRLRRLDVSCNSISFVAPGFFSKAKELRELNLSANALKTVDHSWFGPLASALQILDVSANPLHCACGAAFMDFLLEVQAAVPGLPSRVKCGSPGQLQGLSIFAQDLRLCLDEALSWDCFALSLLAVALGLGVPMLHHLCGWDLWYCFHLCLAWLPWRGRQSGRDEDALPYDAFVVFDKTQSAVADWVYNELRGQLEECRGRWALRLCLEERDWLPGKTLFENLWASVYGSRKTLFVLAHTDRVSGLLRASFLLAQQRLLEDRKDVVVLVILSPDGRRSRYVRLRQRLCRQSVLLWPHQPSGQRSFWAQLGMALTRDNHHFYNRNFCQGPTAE
experimentNotes: Inhibition of human TLR9 in human B cells (IL-6 ELISA)
Type: cell-based
setupConditions: human B cells, agonist 1018 ISS 1 μM, IL-6 readout, 48 hours; range about 0.01 to 10 μM; read-out: Human TLR9 IC50
Numbers only, in nM.

(Q) Recall and state the measured IC50 for Cc1ccc(-n2nc3c(N4CCC(C(=O)NCC(C)(C)CNc5ccccc5)CC4)nnc(C)c3c2C)cc1 .
(A) 4650

(Q) Recall and state the measured IC50 for Cc1ccc(-n2nc3c(N4CCC(C(=O)N5CCC(N(C)C)C5)CC4)nnc(C)c3c2C)cc1 (centres unmarked) .
(A) 202

(Q) Recall and state the measured IC50 for Cc1ccc(-n2cc3cnnc(N4CCC(CCC(=O)NCCN(C)C)CC4)c3n2)cc1 .
(A) 9

(Q) Recall and state the measured IC50 for COc1ccc(-n2nc3c(N4CCCC(C(=O)NCCN(C)C)C4)nnc(C)c3c2C)cc1 (centres unmarked) [54x] .
(A) 4

Would you kindly look at the next entry?
(Q) Recall and state the measured IC50 for Cc1ccc(-n2nc3c(N4CCC(C(=O)N5CCC(N6CCOCC6)CC5)CC4)nnc(C)c3c2C)cc1 .
(A) 253
